- Assayed System: DGKα (Homo sapiens, UniProt P23743)
- Sequence (P23743 whole entry): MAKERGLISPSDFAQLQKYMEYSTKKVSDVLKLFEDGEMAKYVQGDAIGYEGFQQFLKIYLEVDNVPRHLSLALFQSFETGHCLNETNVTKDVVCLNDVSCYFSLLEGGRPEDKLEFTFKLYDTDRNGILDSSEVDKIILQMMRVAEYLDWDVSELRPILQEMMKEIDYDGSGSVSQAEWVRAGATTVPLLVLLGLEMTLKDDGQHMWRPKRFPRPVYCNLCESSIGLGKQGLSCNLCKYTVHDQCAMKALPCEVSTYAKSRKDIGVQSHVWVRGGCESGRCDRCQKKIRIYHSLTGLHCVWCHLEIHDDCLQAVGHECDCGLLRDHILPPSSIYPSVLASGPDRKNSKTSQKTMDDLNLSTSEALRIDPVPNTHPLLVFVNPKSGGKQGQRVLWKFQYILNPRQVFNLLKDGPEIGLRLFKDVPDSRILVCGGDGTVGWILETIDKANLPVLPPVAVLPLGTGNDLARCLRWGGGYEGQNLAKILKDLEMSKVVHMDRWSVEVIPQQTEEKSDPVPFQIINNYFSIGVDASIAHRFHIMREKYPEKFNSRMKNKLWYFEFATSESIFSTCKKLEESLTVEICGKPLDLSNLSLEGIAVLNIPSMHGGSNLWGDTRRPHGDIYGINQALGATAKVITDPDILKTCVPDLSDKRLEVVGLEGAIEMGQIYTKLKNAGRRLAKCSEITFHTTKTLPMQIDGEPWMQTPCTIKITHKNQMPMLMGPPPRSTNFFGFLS
- Experimental Details: DGK assay on OST-DGKα enriched MDCK homogenates
- Type: biochemical
- Design: expressed in transfected cells; host or cells: MDCK cells (vector-infected, doxycycline-induced), crude homogenate
- Measurement Parameters: 100 µM; percentage of residual DGKα activity compared to DMSO control; OST-DGKα overexpressing cell lysates, saturating DAG and ATP; read-out: Residue activity at 100 µM
Let's look at some compounds and their measured remaining activity at 100 µM.
Just the number in %, nothing appended.

Cc1ccc2c(C(=O)CN3CCN(C(=O)c4cccc(Cl)c4)CC3)c(C)[nH]c2c1
26
Cc1ccc2c(C(=O)C(C)N3CCN(C(=O)c4ccco4)CC3)c(C)[nH]c2c1 (centres unmarked)
67
COc1ccc(C(=O)N2CCN(CC(=O)c3c(C)[nH]c4cc(C)ccc34)CC2)cc1
6
Cc1[nH]c2ccccc2c1C(=O)C(C)N1CCN(C(=O)c2ccccc2)CC1 (centres unmarked)
114
Cc1ccc2c(C(=O)CN3CCN(C(=O)c4cccs4)CC3)c(C)[nH]c2c1
6

Data request: Quick check: remaining activity at 100 µM of Cc1ccc2c(C(=O)CN3CCN(C(=O)c4ccco4)CC3)c(C)[nH]c2c1 ?
Data returned: 4

Data request: Quick check: remaining activity at 100 µM of Cc1ccc2c(C(=O)CN3CCN(C(=O)c4ccc(C#N)cc4)CC3)c(C)[nH]c2c1 ?
Data returned: 14

Data request: Quick check: remaining activity at 100 µM of Cc1ccc2c(C(=O)CN3CCN(C(=O)c4ccccc4)CC3)c(C)[nH]c2c1 ?
Data returned: 5

###

- Assayed System: DGKα (Homo sapiens)
- Experimental Details: DGK assay on OST-DGKα enriched MDCK homogenates
- Type: biochemical
- Design: expressed in transfected cells; host or cells: MDCK cells (vector-infected, doxycycline-induced), crude homogenate
- Measurement Parameters: 100 µM; percentage of residual DGKα activity compared to DMSO control; OST-DGKα overexpressing cell lysates, saturating DAG and ATP; read-out: Residue activity at 100 µM
Values of remaining activity at 100 µM strictly less than 40% map to Condition met, and values of at least 40% map to Condition not met.

Reference set, count: 8
Cc1ccc2c(C(=O)CN3CCN(C(=O)c4cccnc4)CC3)c(C)[nH]c2c1 [Compound 15]
Condition not met
O=C(c1c[nH]c2ccccc12)C(c1ccccc1)N1CCN(C(=O)c2ccco2)CC1 (centres unmarked) [Amb94966]
Condition not met
CC(C(=O)c1c[nH]c2ccccc12)N1CCN(C(=O)c2ccco2)CC1 (centres unmarked) [Amb626577]
Condition not met
Cc1nc2sccn2c(=O)c1CCN1CCC(=C(c2ccccc2)c2ccc(F)cc2)CC1 [Compound R59022]
Condition met
Cc1ccc2c(C(=O)CN3CCN(C(=O)c4ccc(F)c(F)c4)CC3)c(C)[nH]c2c1 [Compound 18]
Condition not met
Cc1ccc2c(C(=O)CN3CCN(C(=O)c4ccccc4C)CC3)c(C)[nH]c2c1 [Compound 16]
Condition met
Cc1[nH]c2ccccc2c1C(=O)C(c1ccccc1)N1CCN(C(=O)c2ccco2)CC1 (centres unmarked) [Amb1926062]
Condition not met
COc1ccc2[nH]cc(C(=O)CN3CCN(C(=O)c4ccco4)CC3)c2c1 [Amb629700]
Condition not met

Data request: Given the entry O=C(CN1CCN(C(=O)c2ccco2)CC1)c1c[nH]c2ccccc12 [Compound 2] , would its reported remaining activity at 100 µM be below 40%?
Data returned: Condition not met

Data request: Given the entry Cc1[nH]c2c(C)ccc(C)c2c1C(=O)CN1CCN(C(=O)c2ccco2)CC1 [Amb22018852] , would its reported remaining activity at 100 µM be below 40%?
Data returned: Condition not met

Data request: Given the entry Cc1ccc2[nH]cc(C(=O)CN3CCN(C(=O)c4ccco4)CC3)c2c1 [Amb758592] , would its reported remaining activity at 100 µM be below 40%?
Data returned: Condition not met

Data request: Given the entry Cc1ccc(C(=O)N2CCN(CC(=O)c3c(C)[nH]c4cc(C)ccc34)CC2)cc1 [Compound 20] , would its reported remaining activity at 100 µM be below 40%?
Data returned: Condition met
